system: MKN-45; assay: cells; conditions: Homo sapiens, MKN-45, 72 h
Description: Antiproliferative activity against human MKN-45 cells assessed as inhibition of cell proliferation incubated for 72 hrs by CCK-8 assay
pIC50: −log10 of the molar value.
Recorded Metric: pIC50

- CC(C)n1cc(-c2ccc(F)cc2)c(=O)c2c(Nc3ccc(-c4cn(C)c5ncnc(N)c45)c(F)c3)nccc21: < 7.00

pIC50 for `CC(C)n1cc(-c2ccc(F)cc2)c(=O)c2c(Nc3ccc(-c4cc(-c5cnn(C)c5)cnc4N)c(F)c3)nccc21` ?
< 7.00

---

experiment: Metabolic stability in human liver microsomes assessed as parent compound remaining preincubated with compound for 10 mins followed by NADPH addition and measured after 60 mins by LC-MS/MS analysis; assay type: ADME, Microsome; settings: time 70 min, read-out: Stability
Recorded Metric: remaining at 1 h (%)

(I) CC(C)n1cc(-c2ccc(F)cc2)c(=O)c2c(Nc3ccc(-c4cc(-c5cnn(C)c5)cnc4N)c(F)c3)nccc21
(II) CC(C)n1cc(-c2ccc(F)cc2)c(=O)c2c(Nc3ccc(-c4cn(C)c5ncnc(N)c45)c(F)c3)nccc21
Compare reported remaining at 1 h values for I and II . Which is lower? Mark your selection by writing its label.
II
(II: 47%, I: 76.3%)

---

assay: AUC (0 to infinity) in Sprague-Dawley rat at 3 mg/kg, po measured upto 24 hrs by LC-MS/MS analysis; assay type: ADME, organism-based; settings: in vivo
Recorded Metric: AUC(0-inf) (ng·h/mL)

(1) CC(C)n1cc(-c2ccc(F)cc2)c(=O)c2c(Nc3ccc(-c4cc(-c5cnn(C)c5)cnc4N)c(F)c3)nccc21
(2) CC(C)n1cc(-c2ccc(F)cc2)c(=O)c2c(Nc3ccc(-c4cn(C)c5ncnc(N)c45)c(F)c3)nccc21
Hi team, can someone confirm which has the larger AUC(0-inf): 1 or 2 ? Thanks. Let me know the label of the one you choose.
1

---

assay: Cmax in Sprague-Dawley rat at 3 mg/kg, po measured upto 24 hrs by LC-MS/MS analysis; type: ADME, organism-based; conditions: in vivo
Recorded Metric: Cmax (ng/mL)

(P) CC(C)n1cc(-c2ccc(F)cc2)c(=O)c2c(Nc3ccc(-c4cn(C)c5ncnc(N)c45)c(F)c3)nccc21
(Q) CC(C)n1cc(-c2ccc(F)cc2)c(=O)c2c(Nc3ccc(-c4cc(-c5cnn(C)c5)cnc4N)c(F)c3)nccc21
Record comparison, field Cmax: mark the lower of P and Q . Reply briefly: the label of your chosen item.
P
(P: 187 ng/mL, Q: 2910 ng/mL)
